From: patent US5620973A

# Tested on: serotonin (5-HT) reuptake
# assayProtocol: monoamine reuptake inhibitory activity, [^3 H]-serotonin (5-HT)
# Type: biochemical, male JCl: Wistar rats
# conditionsUsed: [^3 H]-5-HT 10 nM; P2 pellet of rat cerebral cortex and hippocampus; 37° C., 5 minutes; read-out: Monoamine uptake inhibitory activity IC50, 5-HT
metric: IC50 (µM)
Just the number please, in µM, no unit attached.

Lab note: need IC50 with serotonin (5-HT) reuptake for entry O=C(CCN1CCN(Cc2ccccc2)CC1)c1ccc2c(c1)CN1C(=O)c3ccccc3C1CC2 (centres unmarked) [Example 2-1] , please look it up.
0.07

Tell me reported IC50 for CN(C)CCCN1c2ccccc2CCc2ccccc21 [Imipramine, imipramine, reference compound] , tested with serotonin (5-HT) reuptake.
0.063

###

# targetUnderTest: Acetylcholinesterase (Rattus norvegicus)
# Construct: using the S1 fraction of a male Wistar rat cerebral cortex homogenate as a source of cholinesterase; from tissue; host or cells: male Wistar rat cerebral cortex homogenate, S1 fraction
# assayProtocol: biochemical
# Set-up: species or system male Wistar rat
# conditionsUsed: S1 fraction of male Wistar rat cerebral cortex homogenate; 30 minutes incubation; read-out: Acetylcholinesterase inhibitory activity IC50
Where a name gives a salt, the structure may show the parent alone.
metric: pIC50
Conceptually, pIC50 converts a concentration in mol/L into minus its log10.

Record O=C(CCN1CCN(Cc2cccc(F)c2)CC1)c1ccc2c(c1)CN1C(=O)c3ccccc3C1CC2 (stereo not shown) : what is its pIC50 with Acetylcholinesterase (Rattus norvegicus)?
7.76

Write down the reported pIC50 of O=C(CCN1CCN(Cc2cccc(Cl)c2)CC1)c1ccc2c(c1)CN1C(=O)c3ccccc3C1CC2 (stereo not shown) , test system: Acetylcholinesterase (Rattus norvegicus).
7.18

Form entry - test system: Acetylcholinesterase (Rattus norvegicus); read-out: pIC50; molecule: O=C(CCN1CCN(Cc2ccccc2)CC1)c1ccc2c(c1)CN1C(=O)c3ccccc3C1CC2 (stereo not shown)
7.79

Request: pIC50, test system Acetylcholinesterase (Rattus norvegicus), entry O=C(CCN1CCN(Cc2ccccc2)CC1)c1cc2c3c(c1)C1CCCCC1N3C(=O)CC2 (stereo not shown) [Example 1, dihydrochloride]
7.11

###

# targetUnderTest: Acetylcholinesterase (Rattus norvegicus, UniProt P37136)
# Construct: using the S1 fraction of a male Wistar rat cerebral cortex homogenate as a source of cholinesterase; from tissue; host or cells: male Wistar rat cerebral cortex homogenate, S1 fraction
# Sequence (P37136 32-614): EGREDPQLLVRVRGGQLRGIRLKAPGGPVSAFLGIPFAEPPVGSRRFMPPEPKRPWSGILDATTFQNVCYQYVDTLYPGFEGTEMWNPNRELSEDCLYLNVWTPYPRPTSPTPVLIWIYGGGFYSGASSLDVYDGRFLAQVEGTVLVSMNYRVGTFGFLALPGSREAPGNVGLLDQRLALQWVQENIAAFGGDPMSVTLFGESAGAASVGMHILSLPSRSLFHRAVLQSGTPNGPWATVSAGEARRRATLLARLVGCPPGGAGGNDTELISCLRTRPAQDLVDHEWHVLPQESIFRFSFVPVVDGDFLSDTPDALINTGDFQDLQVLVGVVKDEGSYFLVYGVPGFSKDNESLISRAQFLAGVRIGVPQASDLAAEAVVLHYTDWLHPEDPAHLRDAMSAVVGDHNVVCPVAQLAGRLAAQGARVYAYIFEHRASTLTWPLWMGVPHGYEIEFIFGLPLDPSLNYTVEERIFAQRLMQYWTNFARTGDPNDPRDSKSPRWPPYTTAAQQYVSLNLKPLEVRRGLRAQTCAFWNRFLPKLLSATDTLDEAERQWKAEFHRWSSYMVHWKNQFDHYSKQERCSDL
# assayProtocol: biochemical
# Parameters: species or system male Wistar rat
Structures can show the parent of a compound that is named as a salt.
So I've got a bunch of compounds here, and I need their pIC50 values.
Remember, pIC50 is on a log scale: it is -log10 of the molar concentration.

Fill blank: measured pIC50 of the compound O=C(CCC1CCN(Cc2ccccc2)CC1)c1cc2c3c(c1)C1CCCCC1N3C(=O)CC2 (centres unmarked) is ____.
8.10

State the recorded pIC50 for this entry: O=C(CCC1CCN(Cc2ccccc2)CC1)c1ccc2c(c1)CN1C(=O)c3ccccc3C1CC2 (centres unmarked) [Example 4, hydrochloride]
8.62
